Could you please report measured melting point for the items listed next?

Example entries begin here.
>  <Smiles Structure>
Nc1ccccc1CC(=O)Nc1n[nH]c(-c2ccc(F)cc2)c1-c1ccncc1

>  <Reading>
196.3 to 197.1 °C

$$$$
>  <Smiles Structure>
O=C(Cc1ccccc1)Nc1n[nH]c(-c2ccccc2)c1-c1ccncc1

>  <Reading>
257.3 to 264.1 °C

$$$$
>  <Smiles Structure>
Cn1nc(-c2ccc(F)cc2)c(-c2ccncc2)c1NC(=O)Cc1cc(C(F)(F)F)cc(C(F)(F)F)c1

>  <Reading>
228.3 to 230.6 °C

$$$$
>  <Smiles Structure>
O=C(Cc1ccccc1)Nc1n[nH]c(-c2ccc(F)cc2)c1-c1ccnc2ccccc12

>  <Reading>
273.4 to 275.3 °C

$$$$
>  <Smiles Structure>
O=C(CO)Nc1n[nH]c(-c2ccc(F)cc2)c1-c1ccncc1

>  <Reading>
264 to 266 °C

$$$$

For every record below, what is its melting point?
1. O=C(Cc1ccncc1)Nc1n[nH]c(-c2ccc(F)cc2)c1-c1ccncc1
2. CCCn1nc(-c2ccc(F)cc2)c(-c2ccncc2)c1NC(=O)Cc1ccccc1

Reply:
["248.3 to 251.8 °C (dec.)", "176.5 to 178.5 °C"]

I need melting point for every entry listed below, if you could help.
1. Cn1nc(-c2ccc(F)cc2)c(-c2ccncc2)c1NC(=O)Cc1ccc(F)cc1F
2. Cn1nc(-c2ccc(F)cc2)c(-c2ccncc2)c1NC(=O)Cc1c(Cl)cccc1Cl

Reply:
["225.5 to 228.3 °C", "252.5 to 256.7 °C"]

###

Kindly supply the reported melting point values for the records listed here.

// below: answered compounds
>  <Compound>
Cn1cccc1CC(=O)Nc1c(-c2ccncc2)c(-c2ccc(F)cc2)nn1C [Example 79]

>  <Measured Property>
melting point

>  <Reading>
165.1 to 168.1 °C

$$$$
>  <Compound>
O=C(CC1CCCCC1)Nc1n[nH]c(-c2ccc(F)cc2)c1-c1ccncc1 [Example 23]

>  <Measured Property>
melting point

>  <Reading>
296.3 to 299.9 °C

$$$$
>  <Compound>
Cn1nc(-c2ccc(F)cc2)c(-c2ccncc2)c1NC(=O)Cc1ccc(Cl)c(Cl)c1 [Example 37]

>  <Measured Property>
melting point

>  <Reading>
205.1 to 207 °C

$$$$
>  <Compound>
O=C(Cc1cccc(Cl)c1)Nc1n[nH]c(-c2ccc(F)cc2)c1-c1ccncc1 [Example 25]

>  <Measured Property>
melting point

>  <Reading>
249.7 to 250.8 °C

$$$$
>  <Compound>
Cn1nc(-c2ccc(F)cc2)c(-c2ccncc2)c1NC(=O)Cc1ccccc1Cl [Example 56]

>  <Measured Property>
melting point

>  <Reading>
215.9 to 217.8 °C

$$$$

Below is a list of compounds. For each, state its recorded melting point.
1. COc1ccc(CC(=O)Nc2c(-c3ccncc3)c(-c3ccc(F)cc3)nn2C)cc1 [Example 64]
2. Cn1nc(-c2ccc(F)cc2)c(-c2ccncc2)c1NC(=O)Cc1ccccc1F [Example 60]

Reply:
["172.3 to 176 °C", "196.8 to 198.1 °C"]

###

Measured Property: melting point

Field: melting point. Fill in for each record below.
1. Cn1nc(-c2ccc(F)cc2)c(-c2ccncc2)c1NC(=O)Cc1c[nH]c2ccccc12
2. Cn1nc(-c2ccc(F)cc2)c(-c2ccncc2)c1NC(=O)Cc1cc(F)cc(F)c1
3. Cc1ccc(S(=O)(=O)Nc2n[nH]c(-c3ccc(F)cc3)c2-c2ccncc2)cc1
4. Cn1nc(-c2ccc(F)cc2)c(-c2ccncc2)c1NC(=O)Cc1ccccc1[N+](=O)[O-]
5. COc1cccc(CC(=O)Nc2c(-c3ccncc3)c(-c3ccc(F)cc3)nn2C)c1
6. CN(C(=O)Cc1ccccn1)c1c(-c2ccncc2)c(-c2ccc(F)cc2)nn1C
7. Cn1nc(-c2ccc(F)cc2)c(-c2ccncc2)c1NC(=O)Cc1ccccn1
8. COc1ccc(CC(=O)Nc2c(-c3ccncc3)c(-c3ccc(F)cc3)nn2C)c(OC)c1

Reply:
1: 66.9 to 68.8 °C; 2: 208.5 to 210.2 °C; 3: 221.2 to 221.5 °C; 4: 240.9 to 242.4 °C; 5: 135 to 141.2 °C; 6: 144 to 145.2 °C; 7: 148.9 to 149.4 °C; 8: 179.3 to 182.2 °C

Reference source: patent US6511997B1
